# Tested on: U2OS
# ASSAY_SUMMARY: Multiplex assay against U2OS
# Format: toxicity, cell-based
# SETTINGS: human, 24 h, 1 µM, compound concentration 1 uM, replicate 2
Listed here: items and their measured Population Tubulin-Different-Phenotype (%).
PARAMETER_MEASURED: Population Tubulin-Different-Phenotype (%)

| MOLECULE | REPORTED |
| --- | --- |
| CC(C)C[C@H](NC(=O)[C@H](Cc1ccccc1)NC(=O)CNC(=O)CNC(=O)[C@@H](N)Cc1ccc(O)cc1)C(=O)O [ENKEPHALIN] | 31 |
| CN(c1cc(C(F)(F)F)nc(OCCC(=O)O)n1)c1cccc2c1CCC2 | 30 |
| CC[C@@H]1C(=O)N(C)c2cnc(Nc3ccc(C(=O)NC4CCN(C)CC4)cc3OC)nc2N1C1CCCC1 [BI-2536] | 10 |
| C[C@@H](Oc1cc(-n2cnc3ccc(CN4CCN(C)CC4)cc32)sc1C(N)=O)c1ccccc1C(F)(F)F [GSK-461364] | 28 |
| NC(=O)c1ccc2nc(-c3ccc(C4(N)CCC4)cc3)c(-c3ccccc3)n2n1 [BAY-1125976] | 13 |
| C=CC(=O)Nc1cc(-n2c(=O)ccc3cnc4ccc(-c5ccc(NS(C)(=O)=O)cc5)cc4c32)ccc1C | 22 |
| CCCCN(CC)c1nc(C)nc2c1c(C)cn2-c1c(C)cc(C)cc1C.Cl | 7 |
| CCOC(=O)CCNc1cc(N2CCc3ccccc3CC2)nc(-c2ccccn2)n1 | 23 |
| CC(C)[C@H](CO)Nc1nc(Nc2cccc(Cl)c2)c2ncn(C(C)C)c2n1 [PURVALANOLA] | 9 |
| Cc1c(Nc2ccc(S(=O)(=O)N3CCN(C)CC3)cc2F)nc2ccc(-c3cnn(C4CC4)c3)cn2c1=O | 20 |
| CCCCCNC(=N)N/N=C/c1c[nH]c2ccc(OC)cc12.O=C(O)/C=C\C(=O)O [TEGASEROD MALEATE] | 7 |
| CC(C)c1cc(Nc2nc(N3CCC[C@H](N)C3)ncc2C(N)=O)cc(C(C)C)n1 | 94 |
| Cc1ccc(NC(=O)Nc2cc(C(F)(F)F)ccc2F)cc1Nc1ccc2c(c1)NC(=O)/C2=C\c1ccc[nH]1 | 53 |
| N#CCNC(=O)c1ccc(-c2ccnc(Nc3ccc(N4CCOCC4)cc3)n2)cc1 [MOMELOTINIB] | 8 |
| CC(Cc1ccc(O)c(O)c1)C(C)Cc1ccc(O)c(O)c1 (configuration not stated) [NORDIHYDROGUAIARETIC ACID] | 23 |
| CN1C(=O)[C@@H](NC(=O)c2cc3ccccc3[nH]2)N=C(c2ccccc2)c2ccccc21 [DEVAZEPIDE] | 6 |
| CC(/C=C1\SC(=S)N(CCCC(=O)Nc2ccc(C(=O)O)c(O)c2)C1=O)=C\c1ccccc1 | 12 |
